Known PC50 of a selection of compounds
System: HT-22
TEST_METHOD_NOTES: The concentration producing 50% protection against L-HCA-mediated neurotoxicity in HT-22 hippocampal cell line.
Format: functional, Mus musculus
Numbers only; they are read as µM.

-- ask Sample `C1=CC2(CCCCC2)Nc2ccc(Oc3ccccc3)cc21` — what was its PC50?
-- reply 4.75

-- ask Fill blank: measured PC50 of the compound `CCOc1ccc2c(c1)C(C)=CC(C)(C)N2` is ____.
-- reply 0.41

-- ask Query: PC50; subject: `CCOc1c(C(C)C)cc2c(c1C(C)C)C=CC1(CCCCC1)N2`
-- reply 0.12

-- ask For the compound shown here, `CCOc1ccc2c(c1)C=CC1(CCCCC1)N2` , give the reported PC50.
-- reply 0.18

-- ask Which PC50 value belongs to `COc1ccc2c(c1)C=CC1(CCCCC1)N2` ?
-- reply 0.49

New cases:
-- ask So what does the record say about PC50 for `CCOc1c(C(C)C)cc2c(c1C(C)C)CCC(C)(C)N2` ?
-- reply 0.06

----------
System: HT-22
TEST_METHOD_NOTES: Safety ratio of MTC to that of PC50
Format: functional, Mus musculus
Ratio of 30 or higher: criterion met. Under 30: criterion not met.

-- ask Hi, just wondering whether `O=c1c2ccccc2[se]n1-c1ccccc1` shows Ratio of 30 or higher.
-- reply criterion not met

-- ask Form field: Ratio at least 30? Entry: `CCOc1cccc2c1NC(C)(C)C=C2`
-- reply criterion met

-- ask Confirm if Ratio reported for the compound `CCOc1c(C)c(C)c2c(c1C)C=CC(C)(C)N2` is 30 or above.
-- reply criterion met

-- ask Is Ratio at least 30? Consider `CCOc1cccc2c1NC1(C=C2)CCCCC1`
-- reply criterion not met

-- ask Does Ratio meet or surpass 30 for `CCOc1c(C)c(C)c2c(c1C)C=CC1(CCCCC1)N2` ?
-- reply criterion met

-- ask Determine whether this compound has Ratio no lower than 30: `CC1=NN(c2ccccc2)C(=O)C1`
-- reply criterion not met

-- ask Decide: Ratio of `CCOc1c(C)cc2c(c1C)C=CC(C)(C)N2` >= 30?
-- reply criterion met

-- ask hey, is Ratio for this one >= 30? `CCOc1c(C)cc2c(c1C)C=CC1(CCCCC1)N2`
-- reply criterion met

-- ask Check if Ratio >= 30 (inclusive). Item: `COc1ccc2c(c1)C=CC1(CCCCC1)N2`
-- reply criterion not met

-- ask Does Ratio meet or surpass 30 for `CCOc1c(C(C)C)cc2c(c1C(C)C)CCC(C)(C)N2` ?
-- reply criterion met

---
-- ask Decide: Ratio of `CCOc1c(C)c(C)c2c(c1C)CCC1(CCCCC1)N2` >= 30?
-- reply criterion met

-- ask Check if Ratio >= 30 (inclusive). Item: `CCOc1ccc2c(c1)C=CC1(CCCCC1)N2`
-- reply criterion not met

-- ask Would you say `CCOc1ccc2c(c1)CCC1(CCCCC1)N2` shows Ratio at minimum 30?
-- reply criterion met

-- ask # check: Ratio of `C1=CC2(CCCCC2)Nc2ccc(Oc3ccccc3)cc21` is greater than or equal to 30
-- reply criterion not met

-- ask Decide: Ratio of `CC(C)(C)Oc1ccc2c(c1)C=CC1(CCCCC1)N2` >= 30?
-- reply criterion met

Origin of values: ChEMBL document CHEMBL1133038
